protocol.details: Plasma pharmacokinetics, QD and BID cohorts (non-compartmental)
Format: in vivo, human
condition.context: human, plasma, oral, 50 mg, QD; C1D1; plasma; read-out: Cmax, Mean
parameter: Cmax

Consider the compound shown here: "Nc1ncc(-c2cnn(C3CCNCC3)c2)cc1-c1nnc(CC2CC2)o1" What is its recorded Cmax?
72.9 ng/mL

====

protocol.details: Plasma pharmacokinetics, QD and BID cohorts (non-compartmental)
Assay type: in vivo, human
condition.context: human, plasma, oral, 110 mg, 110 mg BID, C1D21, mean, n=3, plasma; read-out: Cmax
parameter: Cmax (ng/mL)
Write the answer as a number in ng/mL, unit excluded.

Consider the compound shown here: "Nc1ncc(-c2cnn(C3CCNCC3)c2)cc1-c1nnc(CC2CC2)o1" What is its recorded Cmax?
249

====

protocol.details: Plasma pharmacokinetics, QD and BID cohorts (non-compartmental)
Type: in vivo, human
condition.context: human, plasma, oral, QD, 25 mg to 150 mg; C1D21; read-out: mean AUC0–last, range across cohorts
Procedure: PK parameters were calculated by standard non-compartmental methods for SLC-391. Due to the long half-life of SLC-391 compared to the dosing interval, it was not possible to calculate a number of PK parameters, including plasma half-life and rate of elimination. Accumulation was assessed from the mean accumulation ratio factor (AR factor) calculated as the repeated dose (C1D21) mean value/single dose (C1D1) mean value for the PK parameters Cmax, AUC0–12, and AUC0–last for each dose group. […]
parameter: AUC(0-t)

Consider the molecule shown here: "Nc1ncc(-c2cnn(C3CCNCC3)c2)cc1-c1nnc(CC2CC2)o1" What is its recorded AUC(0-t)?
461 to 3620 ng·h/mL

====

protocol.details: Plasma pharmacokinetics, QD and BID cohorts (non-compartmental)
Type: in vivo, human
condition.context: human, plasma, oral, 150 mg, 150 mg BID, C1D21, mean, n=6, plasma; read-out: Cmax
parameter: Cmax (ng/mL)
Write the answer as a number in ng/mL, unit excluded.

Consider the compound shown here: "Nc1ncc(-c2cnn(C3CCNCC3)c2)cc1-c1nnc(CC2CC2)o1" What is its recorded Cmax?
527

====

protocol.details: Plasma pharmacokinetics, QD and BID cohorts (non-compartmental)
Format: in vivo, human
condition.context: human, plasma, oral, 150 mg, QD; C1D21; plasma; read-out: Tmax, Mean
parameter: Tmax (h)
Write the answer as a number in h, unit excluded.

Consider the molecule shown here: "Nc1ncc(-c2cnn(C3CCNCC3)c2)cc1-c1nnc(CC2CC2)o1" What is its recorded Tmax?
2.6

====

protocol.details: Plasma pharmacokinetics, QD and BID cohorts (non-compartmental)
Type: in vivo, human
condition.context: human, plasma, oral, 75 mg, 75 mg BID, C1D21, mean, n=3, plasma; read-out: Cmax
parameter: Cmax (ng/mL)
Write the answer as a number in ng/mL, unit excluded.

Consider the compound shown here: "Nc1ncc(-c2cnn(C3CCNCC3)c2)cc1-c1nnc(CC2CC2)o1" What is its recorded Cmax?
267

====

protocol.details: Plasma pharmacokinetics, QD and BID cohorts (non-compartmental)
Assay type: in vivo, human
condition.context: human, plasma, oral, 110 mg, 110 mg BID, C1D21, median, n=3, plasma; read-out: Cmax
parameter: Cmax (ng/mL)
Write the answer as a number in ng/mL, unit excluded.

Consider the compound shown here: "Nc1ncc(-c2cnn(C3CCNCC3)c2)cc1-c1nnc(CC2CC2)o1" What is its recorded Cmax?
187

====

protocol.details: Plasma pharmacokinetics, QD and BID cohorts (non-compartmental)
Type: in vivo, human
condition.context: human, plasma, oral, 200 mg, 200 mg BID, C1D1, mean, n=3, plasma; read-out: AUC0–last
parameter: AUC(0-t) (ng·h/mL)
Write the answer as a number in ng·h/mL, unit excluded.

Consider the molecule shown here: Nc1ncc(-c2cnn(C3CCNCC3)c2)cc1-c1nnc(CC2CC2)o1 [SLC-391] What is its recorded AUC(0-t)?
2050

====

protocol.details: Plasma pharmacokinetics, QD and BID cohorts (non-compartmental)
Type: in vivo, human
condition.context: human, plasma, oral, 100 mg, QD; C1D1; plasma; read-out: AUC0–last, Median
parameter: AUC(0-t) (ng·h/mL)
Write the answer as a number in ng·h/mL, unit excluded.

Consider the compound shown here: "Nc1ncc(-c2cnn(C3CCNCC3)c2)cc1-c1nnc(CC2CC2)o1" What is its recorded AUC(0-t)?
460

====

protocol.details: Plasma pharmacokinetics, QD and BID cohorts (non-compartmental)
Assay type: in vivo, human
condition.context: human, plasma, oral, 150 mg, 150 mg BID, C1D1, median, n=6, plasma; read-out: Tmax
Method: PK parameters were calculated by standard non-compartmental methods for SLC-391. Due to the long half-life of SLC-391 compared to the dosing interval, it was not possible to calculate a number of PK parameters, including plasma half-life and rate of elimination. Accumulation was assessed from the mean accumulation ratio factor (AR factor) calculated as the repeated dose (C1D21) mean value/single dose (C1D1) mean value for the PK parameters Cmax, AUC0–12, and AUC0–last for each dose group. […]
parameter: Tmax (h)
Write the answer as a number in h, unit excluded.

Consider the compound shown here: "Nc1ncc(-c2cnn(C3CCNCC3)c2)cc1-c1nnc(CC2CC2)o1" What is its recorded Tmax?
2

====

protocol.details: Plasma pharmacokinetics, QD and BID cohorts (non-compartmental)
Format: in vivo, human
condition.context: human, plasma, oral, 50 mg, QD; C1D21; plasma; read-out: Cmax, Mean
parameter: Cmax (ng/mL)
Write the answer as a number in ng/mL, unit excluded.

Consider the compound shown here: "Nc1ncc(-c2cnn(C3CCNCC3)c2)cc1-c1nnc(CC2CC2)o1" What is its recorded Cmax?
99.2

====

protocol.details: Plasma pharmacokinetics, QD and BID cohorts (non-compartmental)
Assay type: in vivo, human
condition.context: human, plasma, oral, 50 mg, QD; C1D21; plasma; read-out: AUC0–12, Median
parameter: AUC

Consider the compound shown here: "Nc1ncc(-c2cnn(C3CCNCC3)c2)cc1-c1nnc(CC2CC2)o1" What is its recorded AUC?
706 ng·h/mL

====

protocol.details: Plasma pharmacokinetics, QD and BID cohorts (non-compartmental)
Format: in vivo, human
condition.context: human, plasma, oral, 25 mg, QD; C1D1; plasma; read-out: AUC0–last, Mean
parameter: AUC(0-t) (ng·h/mL)
Write the answer as a number in ng·h/mL, unit excluded.

Consider the compound shown here: Nc1ncc(-c2cnn(C3CCNCC3)c2)cc1-c1nnc(CC2CC2)o1 [SLC-391] What is its recorded AUC(0-t)?
270

====

protocol.details: Plasma pharmacokinetics, QD and BID cohorts (non-compartmental)
Type: in vivo, human
condition.context: human, plasma, oral, 150 mg, QD; C1D1; plasma; read-out: Tmax, Mean
parameter: Tmax (h)
Write the answer as a number in h, unit excluded.

Consider the compound shown here: "Nc1ncc(-c2cnn(C3CCNCC3)c2)cc1-c1nnc(CC2CC2)o1" What is its recorded Tmax?
5.5

====

protocol.details: Plasma pharmacokinetics, QD and BID cohorts (non-compartmental)
Assay type: in vivo, human
condition.context: human, plasma, oral, 150 mg, QD; C1D1; plasma; read-out: Cmax, Median
parameter: Cmax
The reply should read as a number followed by its unit.

Consider the molecule shown here: "Nc1ncc(-c2cnn(C3CCNCC3)c2)cc1-c1nnc(CC2CC2)o1" What is its recorded Cmax?
126 ng/mL

====

protocol.details: Plasma pharmacokinetics, QD and BID cohorts (non-compartmental)
Type: in vivo, human
condition.context: human, plasma, oral, 150 mg, QD; C1D21; plasma; read-out: AUC0–12, Mean
parameter: AUC (ng·h/mL)
Write the answer as a number in ng·h/mL, unit excluded.

Consider the compound shown here: Nc1ncc(-c2cnn(C3CCNCC3)c2)cc1-c1nnc(CC2CC2)o1 [SLC-391] What is its recorded AUC?
2140

====

protocol.details: Plasma pharmacokinetics, QD and BID cohorts (non-compartmental)
Type: in vivo, human
condition.context: human, plasma, oral, 125 mg, QD; C1D21; plasma; read-out: Tmax, Median
parameter: Tmax (h)
Write the answer as a number in h, unit excluded.

Consider the compound shown here: Nc1ncc(-c2cnn(C3CCNCC3)c2)cc1-c1nnc(CC2CC2)o1 [SLC-391] What is its recorded Tmax?
2

====

protocol.details: Plasma pharmacokinetics, QD and BID cohorts (non-compartmental)
Format: in vivo, human
condition.context: human, plasma, oral, 75 mg, 75 mg BID, C1D1, median, n=3, plasma; read-out: Cmax
Procedure: PK parameters were calculated by standard non-compartmental methods for SLC-391. Due to the long half-life of SLC-391 compared to the dosing interval, it was not possible to calculate a number of PK parameters, including plasma half-life and rate of elimination. Accumulation was assessed from the mean accumulation ratio factor (AR factor) calculated as the repeated dose (C1D21) mean value/single dose (C1D1) mean value for the PK parameters Cmax, AUC0–12, and AUC0–last for each dose group. […]
parameter: Cmax (ng/mL)
Write the answer as a number in ng/mL, unit excluded.

Consider the compound shown here: "Nc1ncc(-c2cnn(C3CCNCC3)c2)cc1-c1nnc(CC2CC2)o1" What is its recorded Cmax?
93.4
